Assignment: determine reported inhibition at 10000 µM for the given compounds.
Tgt: cross-linking of glycated bovine serum albumin (AGE-BSA) to the rat tail tendon collagen (Bos taurus, UniProt P02769)
Construct: The AGE-BSA was prepared by incubating BSA at a concentration of 200 mg per ml with 200 mM glucose
Sequence (P02769 25-607): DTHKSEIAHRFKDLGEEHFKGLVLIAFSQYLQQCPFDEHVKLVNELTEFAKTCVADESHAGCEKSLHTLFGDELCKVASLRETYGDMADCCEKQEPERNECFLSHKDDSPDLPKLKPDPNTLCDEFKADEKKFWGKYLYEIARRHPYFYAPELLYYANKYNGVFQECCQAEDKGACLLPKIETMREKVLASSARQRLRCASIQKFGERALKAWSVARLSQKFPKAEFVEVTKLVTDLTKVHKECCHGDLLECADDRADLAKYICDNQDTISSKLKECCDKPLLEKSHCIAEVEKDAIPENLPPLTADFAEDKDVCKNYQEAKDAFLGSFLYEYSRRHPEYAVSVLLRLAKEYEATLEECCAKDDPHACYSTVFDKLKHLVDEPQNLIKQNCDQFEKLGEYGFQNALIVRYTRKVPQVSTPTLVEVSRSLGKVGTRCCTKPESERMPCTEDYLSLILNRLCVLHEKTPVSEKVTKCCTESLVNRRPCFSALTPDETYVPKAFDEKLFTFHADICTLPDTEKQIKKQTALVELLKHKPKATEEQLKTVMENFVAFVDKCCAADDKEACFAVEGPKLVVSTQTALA
Measurement description: Inhibition of cross-linking of glycated BSA (AGE-BSA) to collagen-coated plate, ELISA (Example 4)
Format: biochemical
Test conditions: 4 h, pH 7.4, at 10 mM; 37°C, 4 hours, pH 7.4; read-out: %Inh.
The answer consists of two parts: a number and, after it, its unit.

Here's what some known entries look like.
CCOC(=O)CCCCCn1cc[n+](CC(=O)c2cccc(OC)c2)c1 ... 40%
CCOC(=O)CCCCCn1cc[n+](CC(=O)c2ccc(OC)cc2)c1 ... 23%
Cn1cc[n+](CC(=O)c2ccc(F)cc2)c1 ... 29%

Could you now look at the following compound, please?
Enquiry: Look up inhibition at 10000 µM: CCOC(=O)CCCCCn1cc[n+](CC(=O)c2ccc(C)cc2)c1
Return: 33%

Data credit: patent EP1213282A1
